# Measurement Description: folding stability dG unfold from chymotrypsin proteolysis; higher = more stable
// folding stability dG unfold lookup, one value per entry
Property Name: folding stability dG unfold (kcal/mol)

>>> data_value("SAGGSAGGSAGSSILSVVEEDPETGLRVVLSPVSDVPVRIVTKRIPEKEEIKVLEVERLPSAGGSAGGSAGG [r11_1066_JUSTAS]")
-0.758
>>> data_value("SAGGSAGGSEITILIKDENGYLIKVKVELKLKKNKDGKKTLELKIEITEIYKVPSKEEAKKLLSAGGSAGGS [r12_915_TrROS_Hall]")
2.08
>>> data_value("SAGGSAGGSAGGPFPFKIDSVEWETTDNKRYYEIKLEFPNGNPVTIHMPPNNPDDVKDAISAGGSAGGSAGG [r7_365_TrROS]")
-0.00838
>>> data_value("SAEERVFLVPVERRPDGSVRLRFVRPDRVVELELPAGFTVEDALQALSAHPDLRVEVLEAHPDLVLVRGSAG [r14_404_TrMRF]")
2.74
>>> data_value("SAGGSAGGMIVLPPGATVDFDPSVARLTVTVKDPNSDKSTTTTYDVPPTATVTSAPGTIVVNVPSAGGSAGG [r6_804_JUSTAS]")
0.476
>>> data_value("SIIRSPNGYWIVITVKVPEGAKPFPPGFEVQRDPEKGTLTIIMPMPPDDIRRLAEHPGVEIEKIEFIPWDSA [r9_827_TrROS]")
2.05
>>> data_value("SAGGSAGGSAGGMIVIEVERKEGEEERKEVIVIPNDPEKAEAEAKKLAEEGPVEKVTIKKESAGGSAGGSAG [r3_310_JUSTAS]")
1.3
>>> data_value("SAGGMTTLTLETTDEGKPLGLEEILARLREALPGVPVEVLSADPAKGVVTIAVAPEAVPEIERAVAASAGGS [r8_235_JUSTAS]")
2.1
>>> data_value("SAGKETIKIKLFDKNGKLIAEIEIEKLPDGTYKIKIKNKKTGKELEIEVKIEDGKIYIKLPNGAILEIESAG [r5_809_TrROS_Hall]")
5.13
>>> data_value("SAGGMTYVLPNGERLLVRVSVRTEPRLDPDRPELVLEPRVEIELFAVSPDLTLRPVPEELARELFEKESAGG [r13_809_TrMRF]")
1.33
>>> data_value("SAGGTMTIEAWVKYKDMTPEEMREQAKEIAENIMNMMRQRGFPIKKIEVDVEQDPGNGWVQVTIEIEFSAGG [r13_212_TrROS]")
4.62
>>> data_value("SAGGLSLEELADELAQENGWEITEAEPIEFTPNTIRFEVTVRMPDGKRRTIEIEIEIPPPKPPDQPKSAGGS [r8_309_TrROS]")
1.63
>>> data_value("SAGGSAGGSAVETLVTYEVPEDLPPDSLSPEAVIARFAPLGVPTEVVEIDPATGTVTVRTLVPSAGGSAGGS [r12_733_JUSTAS]")
1
>>> data_value("SAGGSAGGSAGGGLSSAPPPVVALSSSVSLVPSPSGGILTVTTTTDAGSGTTTTTTTALSAGGSAGGSAGGS [r10_1137_JUSTAS]")
0.758
>>> data_value("SAMKVYEIPIEIPISKYKPSDIIAALKKALDKLNIPFPEEIIKELTIISIKTGGNISTAIKTLLENGLLSAG [r14_364_TrMRF]")
1.29
>>> data_value("SGEPVIVKITFPDGTVLEIEFEGTPEEVKEAVEEEIKEYAKKHGLKPGEFKVEVIKAGDKTKETYTIKVESA [r9_1193_TrMRF]")
2.03
>>> data_value("SAGGSAGGSAGKIVIVVDEDGNYTLKVNGKTYVFKTPEEAKAAAEELKKAGIEIEIVEVPSAGGSAGGSAGG [r17_35_TrROS_Hall]")
4.96
>>> data_value("SGFEVERVEVEADLDKPTVARFLLVNPDGQPIVALDPVVRLGEEALVLSVYRNPVDGELRVTARRIRLDGSA [r9_269_TrMRF]")
1.24
>>> data_value("SAGGSASSMLSPSLYVTTITVKKPGGMTVTETVPGTPEEVERLIEELKKKGLEVEKVDVVPVSELVSAGGSA [r15_640_JUSTAS]")
1.47
>>> data_value("SAGGSAGGSAMPKTTVYTIPYESDEEAEARIEEIKAEARARNPEAKVTVTPAGESVNVTIVGSAGGSAGGSA [r18_469_JUSTAS]")
-0.116
>>> data_value("SAGGETLTVTVLIKNKDEKNKYYKVEVKVTVEKNENGEKTLTIEMKITDKNGNKKTIKVNLKDIKIIDSAGG [r13_787_TrROS_Hall]")
4.33
>>> data_value("SSKIEASATIEGDVITVTLVADSLSDLLAAIKELAEKLGVSFEILSISYKRLPNGKIIATVTARVKPEDLSA [r9_102_TrMRF]")
4.65
>>> data_value("SAGGSAGGSAGGMPSSVVINLNLSKEEIEAIKKGKPVSPELKPAIEEAKKEGLKVEIKKSAGGSAGGSAGGS [r10_890_JUSTAS]")
0.796
>>> data_value("SAGGSAGGSAMTVTITHDVPPDVSVTVTVTSNNKKIPVSTPSRAASATIPSSEVSSLEIVPSSAGGSAGGSA [r18_170_JUSTAS]")
0.792
>>> data_value("SAGGSAGGSKTIVLPKNMSIEQAREEILAKARELLPPGEKLKVTIEVVETPEGTYLKITIEKESAGGSAGGS [r12_1051_TrROS_Hall]")
3.51
>>> data_value("SAGGSAGGSMLTVKITLPNGEKIEIEIEAESEEEAKAAAEKLLEALREAGVSLEDVKVEVVEPSAGGSAGGS [r12_295_TrROS_Hall]")
2.92
>>> data_value("SAGGSAGGEEAREAIEQELRARGINVTEIKVEEKKLTPDKTVVTFTVTARLPDSELTSTFTVVDSAGGSAGG [r6_533_JUSTAS]")
-0.92

---

# Measurement Description: folding stability dG unfold from chymotrypsin proteolysis; higher = more stable
Mark TRUE for reported folding stability dG unfold of 1 kcal/mol or greater; mark FALSE for anything smaller.

>>> classification("SAMKVTVKPTTLPDGTTVVVTTEPDKIVAYGTYNGDSFTSESLPDGTVVTTAKKPGGVLVTSPTDPNLESAG [r14_213_JUSTAS]")
"FALSE"
>>> classification("SIYIKIPIDEIKPEWNKNGMITLEIKYPNGKTIKFEFPPGFQIDNIEVIKPGWIMFEFEIVPPADPEDAKSA [r9_501_TrROS]")
"TRUE"
>>> classification("SAGSLELPPGVSEVVYDPSSGVYSVRYPDGTLVQVDVLYEPDPFVDELHPVAFVSVYSPTSLLATAPLNSAG [r5_109_TrMRF]")
"TRUE"
>>> classification("SAGGSAGGSAGGTPITDEEFRDLPDDVKLVFENGEVAYVPRDPLKVPIGADKTVTAEPVPSAGGSAGGSAGG [r7_643_TrMRF]")
"FALSE"
>>> classification("SAGGSAGGSAGSIVTIPIAGLSPEEAEALIKEAIAAGEDKPIILVDEDGTPTVVPASELKSAGGSAGGSAGG [r11_541_JUSTAS]")
"FALSE"
>>> classification("SAGGSAGGSAGIITIWFPPDEEFRDFIENLPGPIEDVNIEPRNPGWIKVTLTMRMPPDQVSAGGSAGGSAGG [r11_143_TrROS]")
"FALSE"
>>> classification("SAGGSAGGSAGMTVTTITKTYPFDPNKSLSFTVPPGATITDKKTDADIAKGTVTVTVTVASAGGSAGGSAGG [r11_701_JUSTAS]")
"FALSE"
>>> classification("KKVKIEIEVEKVEDGYYVVRIKVKFEETEETIELELVFPKSLEEVLEKIKELLPEGQITEVEIEVYPLPEPS [r1_399_TrROS_Hall]")
"TRUE"
>>> classification("SAGGKVKVTVTPDGTVTIEFEAESVEEAIKAAKAFLEEAGFEVESIPVEVPPDGTVKVTAKIKPKNASAGGS [r8_253_TrMRF]")
"TRUE"
>>> classification("SAGGSAGGSAGMEIEEEDGKLRLRLEAEFEVTVTTRNADGSTTETTARVRVELTFELPEESAGGSAGGSAGG [r17_103_TrROS_Hall]")
"TRUE"
>>> classification("SMIVRVEGDKTTITLTLTTTTTLTDPTNPSLTTTVSKTVPRTLTLDPNDPAALAALIAALPPGAVPTIVGSA [r9_476_JUSTAS]")
"TRUE"
>>> classification("SAGGSAGGSAMTFFVAVVKTETRVLPDGSLETRSSIEVKPVPAIPAEDLIKKLGLPLEDIASAGGSAGGSAG [r3_338_TrMRF]")
"TRUE"
>>> classification("SAGGSAGGSAKRKVIEVDSLEEIKKAIEEAKEGEVVEIVVRDPETNETYTLKVVDGKIVLIPSAGGSAGGSA [r18_407_TrROS_Hall]")
"TRUE"
>>> classification("SAGGDPNTARVVVLTGHPDVITPEQIRTLLENLGADEIKSVEVFTTPTSRVVRFVDSNGAPTVIFVPSAGGS [r8_86_TrMRF]")
"TRUE"
>>> classification("SPKGIYIFMIQVKWKNPNGNEWTFPIMVPMDEMPEEELRDFIREFFPGFDDVDIEPQVMRIPPSPEAREKSA [r9_841_TrROS]")
"TRUE"
>>> classification("SAGDLAEYIAETLQDHFPNMEVEVEIDGVEDGYIVIDITIYFRDMKDNENKPRWVPWEIVIPPGEPLPSAGG [r19_8_TrROS]")
"TRUE"
>>> classification("SAGGKARITRIEAEPDPLRVEVEVELPDGRKVRAVAVVPPGEGGVARVRTAVDFGEGVVPAADIEIPPSAGG [r13_728_TrMRF]")
"FALSE"
>>> classification("SAGGSAGGMTAVEVKEETVPITLTSSFFPGGVPVPGAAVSTITITTTTTIEPPTGKTVKVTVAGSAGGSAGG [r6_424_JUSTAS]")
"FALSE"
>>> classification("SAGGMIAPDEKVLVKVTLSEGTTSRELEFEFEVPPGATEEELKQRVIDEIPEEPRKNWKVEVEIKPVSAGGS [r16_321_JUSTAS]")
"FALSE"
>>> classification("SAAKKLKELGYKVKKVEVLKPFTLPDGTTLTEYRITVELPTKTVTVDIIAPGESPEIAEEAALAAITASSAG [r14_726_TrMRF]")
"TRUE"
>>> classification("SAGGTPVVVPATITVPVPFGAPARVTIFTPEDGHVLALIELPDGAVLVATFDPTTGELHVAPYADAASAGGS [r16_735_TrMRF]")
"TRUE"
>>> classification("SAGFKIKIEPIEVLPNGTVKYKAIIETEKEKYEVEAFYNPKTGLIYIYSPKTGSIMKINPKTGKIILIPSAG [r14_260_TrMRF]")
"TRUE"
>>> classification("SAGGSAGGSAGGPWITIPLPPGEEYKIENKGNGKEQEINPNDGSIVIPNIPPDNAKVERESAGGSAGGSAGG [r7_200_TrROS]")
"FALSE"
>>> classification("SAGGMTVTVKVKPDEYVIVEIENPVLDSTLTYVVPFNSPMTVTLPLPPDYKVKKITVVSPKKVSKELLSAGG [r13_119_JUSTAS]")
"TRUE"
>>> classification("SAGDMIKIPFNFKDPNGAKPKELEVMISPDPGVITAMFKYKHNNEPKYYMISIPIDPGNGKIEIEIQPMSAG [r5_136_TrROS]")
"TRUE"
>>> classification("SAGGPGMEPIGEIKLDDGVTIEVWRPPNGWYRAKVEFPDNGKQINYPFNPNMSFEQAKDQIKELARKLSAGG [r13_624_TrROS]")
"TRUE"
